Entries and their measured Metabolic Stability Study D = dog follow.
- method.notes: Metabolic stability in dog liver microsomes
- Format: in vitro ADME
Use µL/min/mg as the unit, but write only the number.

compound	Metabolic Stability Study D = dog [µL/min/mg]
COc1ccccc1C(C)NC(=O)Nc1ccc(S(=O)(=O)Cc2ccc3c(c2)CNC3)cc1 (centres unmarked)	41.9

Assign Metabolic Stability Study D = dog to the following record: COc1cc(S(=O)(=O)Cc2ccc3c(c2)CNC3)ccc1NC(=O)NC(C)c1ccccc1.Cl (centres unmarked)
27.8

Look up and report measured Metabolic Stability Study D = dog for this entry: CC(NC(=O)Nc1ccc(S(=O)(=O)Cc2ccc3c(c2)CN(C)C3)cc1)c1ccccc1 (centres unmarked)
14

// fetch Metabolic Stability Study D = dog given entry CC(NC(=O)Nc1ccc(S(=O)(=O)Cc2cc(F)c3c(c2)CCN(C)C3)cc1)c1cccc(Cl)c1Cl (centres unmarked)
227.9

====

- study.system: GHSR-1a (HEK293/GHSR1a cell line) (Homo sapiens)
- Construct: expressed in transfected cells; host or cells: HEK293/GHSR1a cell line
- Sequence (Q92847 whole entry): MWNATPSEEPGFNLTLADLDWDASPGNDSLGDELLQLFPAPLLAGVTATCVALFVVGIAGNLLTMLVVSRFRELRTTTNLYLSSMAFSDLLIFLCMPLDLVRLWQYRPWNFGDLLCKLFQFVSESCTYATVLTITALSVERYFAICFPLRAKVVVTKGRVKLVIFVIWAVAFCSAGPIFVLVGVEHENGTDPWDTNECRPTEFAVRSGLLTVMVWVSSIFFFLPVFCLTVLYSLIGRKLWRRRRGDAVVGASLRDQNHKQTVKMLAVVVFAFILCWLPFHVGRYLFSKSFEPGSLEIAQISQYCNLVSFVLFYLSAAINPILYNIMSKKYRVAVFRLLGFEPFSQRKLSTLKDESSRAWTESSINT
- method.notes: Ghrelin antagonist potency (IC50) with calcium FLIPR assay, ghrelin 10 nM
- Assay type: cell-based
- stated.conditions: ghrelin antagonist potency, read-out: IC50 (Activity)
assay.metric: pIC50
// pIC50 here means minus log10 of the molar concentration (mol/L)

compound	assay.metric	recorded.result
CCOC(=O)N1CCc2cc(NS(=O)(=O)c3ccc(NC(=O)N[C@@H](C)c4cccc(Cl)c4Cl)cc3)ccc2C1 [H1054]	pIC50	5.00
C[C@H](NC(=O)N(O)c1ccc(S(=O)(=O)Nc2ccc3c(c2)CNC3)cc1)c1cccc(Cl)c1Cl [H1188]	pIC50	6.27
COc1ccc([C@H](C)NC(=O)Nc2ccc(S(=O)(=O)Nc3ccc4[nH]ccc4c3)cc2)c(Cl)c1Cl [H0990]	pIC50	6.08

Now, please, on to the next compound.
Give pIC50 for the following compound: C[C@H](NC(=O)Nc1ccc(S(=O)(=O)Cc2ccc(O)cc2)cc1)c1cccc(Cl)c1Cl [H1099]
5.06

====

- method.notes: Plasma protein binding (PPB), mouse
- Format: in vitro ADME
Below, each entry is listed with its recorded fraction unbound.
Could you respond with only the numeric value?

Solved cases below.
compound	fraction unbound
Cl.O=C(NCc1cccc(Cl)c1Cl)Nc1ccc(S(=O)(=O)Cc2ccc3c(c2)CNC3)cc1 [H1057]	0.005
C[C@H](NC(=O)Nc1ccc(S(=O)(=O)Nc2ccc(CO)cc2)cc1)c1cccc(Cl)c1Cl [H1062]	0.0019

With those in mind, consider the next compound.
Identify measured fraction unbound associated with CC(NC(=O)Nc1ccc(S(=O)(=O)Cc2ccc3c(c2)CN(C)C3)cc1)c1ccccc1 (stereo not drawn) [H1194]
0.06

====

# Lookup of reported pIC50 keyed by entry
- study.system: GHSR-1a (HEK293/GHSR1a cell line) (Homo sapiens)
- Construct: expressed in transfected cells; host or cells: HEK293/GHSR1a cell line
- method.notes: Ghrelin antagonist potency (IC50) with calcium FLIPR assay, ghrelin 10 nM
- Type: cell-based
- stated.conditions: ghrelin antagonist potency, read-out: Activity IC50
Answer as the number alone; pIC50 is minus log10 of concentration in mol/L.

compound	pIC50
CC(NC(=O)Nc1ccc(S(=O)(=O)Cc2ccc3c(c2)CCNC3)cc1C(=O)O)c1cccc(Cl)c1Cl (stereo not shown)	8.77
CC(NC(=O)Nc1ccc(S(=O)(=O)Cc2ccc3c(c2)CNC3)cc1Br)c1ccccc1 (stereo not shown)	7.72
COC(=O)c1cc(NC(=O)NC(C)c2ccccc2)ccc1S(=O)(=O)Cc1ccc2c(c1)CNC2 (stereo not shown)	8.08
CC(NC(=O)Nc1ccc(S(=O)(=O)Cc2ccc3c(c2)C(F)(F)CN(C)C3)cc1)c1ccccc1 (stereo not shown)	5.97
CNC(=O)c1cc(NC(=O)NC(C)c2ccccc2)ccc1S(=O)(=O)Cc1ccc2c(c1)CNC2 (stereo not shown)	7.32

Look up pIC50 of CC(NC(=O)Nc1ccc(S(=O)(=O)Cc2ccc3c(c2)CN(C)C3)c(O)c1)c1ccccc1.O=C(O)C(F)(F)F (stereo not shown) and report it.
7.73

Report pIC50, nothing else, for this compound: `CN1Cc2ccc(CS(=O)(=O)c3ccc(NC(=O)N(O)Cc4ccccc4)cc3)cc2C1`
6.29

Give the measured pIC50 for CC(NC(=O)Nc1ccc(S(=O)(=O)Cc2ccc3c(c2)CN(C)C3)c(-c2ncco2)c1)c1ccccc1 (stereo not shown)
7.21

Name the recorded pIC50 of the compound listed here: COc1cc(S(=O)(=O)Cc2ccc3c(c2)CCN(C)C3)ccc1NC(=O)N(O)C(C)c1cccc(Cl)c1Cl.O=C(O)C(F)(F)F (stereo not shown)
8.31

Quick one: give measured pIC50 for COC(=O)c1cc(S(=O)(=O)Cc2ccc3c(c2)CN(C)C3)ccc1NC(=O)NC(C)c1ccccc1 (stereo not shown)
7.14

Check the records and state pIC50 for COc1cc(NC(=O)N(O)C(C)c2ccccc2F)ccc1S(=O)(=O)Cc1ccc2c(c1)CN(C)C2 (stereo not shown)
8.22

Given CC(NC(=O)Nc1ccc(S(=O)(=O)Cc2ccc3c(c2)CNC3)cc1-c1cccnc1)c1ccccc1 (stereo not shown) , respond with its pIC50.
5.77

Give the value of pIC50 reported for the following: CC(NC(=O)Nc1ccc(C(=O)Nc2ccc3c(c2)CNC3)cc1)c1ccccc1 (stereo not shown)
5.60

Output measured pIC50 for this item: CC(=O)N1C2CC=C(CS(=O)(=O)c3ccc(NC(=O)NC(C)c4cccc(Cl)c4Cl)cc3)C1CC2 (stereo not shown)
4.84

Look up and report measured pIC50 for this entry: COc1cc(S(=O)(=O)Cc2ccc3c(c2)CCN(C)C3)ccc1NC(=O)N(O)C(C)c1ccccc1 (stereo not shown)
7.43

Read off the recorded pIC50 for CC(NC(=O)N(O)c1ccc(S(=O)(=O)Cc2ccc3c(c2)CN(C)C3)cc1)c1ccccc1 (stereo not shown)
5.93

====

- method.notes: Metabolic stability in human liver microsomes
- Type: in vitro ADME
- Experimental: Metabolic Stability Study The metabolic stability of compounds in human, dog, rat and mouse liver microsomes was performed according the experimental conditions reported below: • a) Prepare the following 5 stock solutions: • 1. […]
Below: a set of entries, each annotated with reported Metabolic Stability Study H = human.
Numbers only here, please. The scale is µL/min/mg.

compound	Metabolic Stability Study H = human [µL/min/mg]
CC(NC(=O)Nc1ccc(S(=O)(=O)Cc2ccc3c(c2)CNC3)cc1)c1cccc(F)c1 (centres unmarked)	25.7
CC(NC(=O)Nc1ccc(S(=O)(=O)Cc2ccc3c(c2)CN(C)C3)cc1F)c1ccccc1 (centres unmarked)	96.7
CC(NC(=O)Nc1ccc(S(=O)(=O)Nc2ccc3c(c2)CCN(C)C3)cc1)c1cccc(Cl)c1Cl (centres unmarked)	47.2
CC(NC(=O)Nc1ccc(S(=O)(=O)Cc2ccc3c(c2)CNC3)cc1)c1c(F)cccc1F (centres unmarked)	14.8
CC(NC(=O)Nc1ccc(S(=O)(=O)Cc2ccc3c(c2)CNC3)c(C2CC2)c1)c1ccccc1 (centres unmarked)	49.2

Indicate the recorded Metabolic Stability Study H = human value for this compound: COc1cc(S(=O)(=O)Cc2ccc3c(c2)CC(C)NC3)ccc1NC(=O)NC(C)c1ccccc1 (centres unmarked)
17.3

====

- study.system: recombinant human ghrelin receptor (HEK293/GRLN) (Homo sapiens, UniProt Q92847)
- Construct: expressed in transfected cells
- Sequence (Q92847 whole entry): as above
- method.notes: Ghrelin inverse agonist potency (EC50) with IP-1 (IP-One HTRF) assay
- Type: cell-based
- stated.conditions: inverse agonist potency, IP-1 assay; read-out: EC50 (Activity)
pEC50: −log10 of the molar value.
Entry flag: fulfilled if pEC50 reaches 7; not fulfilled if it does not.

See these solved cases before continuing.
compound	assigned.class
C[C@H](NC(=O)Nc1ccc(S(=O)(=O)Cc2ccc(CC(C)(C)N(C)C)cc2)cc1)c1cccc(Cl)c1Cl [H1010]	fulfilled
CN1Cc2ccc(CS(=O)(=O)c3ccc(NC(=O)NC(c4ccccc4)C(F)(F)F)cc3)cc2C1 (stereo not drawn) [H1227]	not fulfilled
COc1ccc([C@H](C)NC(=O)Nc2ccc(S(=O)(=O)Nc3ccc(CC(C)(C)N)cc3)cc2)c(Cl)c1Cl [H0937]	fulfilled
C[C@H](NC(=O)Nc1ccc(S(=O)(=O)Cc2ccc3[nH]ccc3c2)cc1)c1cccc(Cl)c1Cl [H1142]	not fulfilled
CN(Cc1ccccc1)C(=O)Nc1ccc(S(=O)(=O)Cc2ccc3c(c2)CNC3)cc1 [H1204]	not fulfilled

Assess whether reported pEC50 for CNC(C)(C)Cc1ccc(NS(=O)(=O)c2ccc(NC(=O)N[C@@H](C)c3ccc(-c4cnccn4)c(Cl)c3Cl)cc2)cc1 [H0941] sits at 7 or higher.
fulfilled

====

- study.system: recombinant human ghrelin receptor (HEK293/GRLN) (Homo sapiens)
- Construct: expressed in transfected cells
- method.notes: Ghrelin inverse agonist potency (EC50) with IP-1 (IP-One HTRF) assay
- Type: cell-based
- stated.conditions: IP-1 assay, HEK293/GRLN; read-out: Activity EC50 (ghrelin inverse agonist potency)
hey, just use Y if measured EC50 is less than 60 nM, otherwise N

molecule	assigned.class
COc1cc(S(=O)(=O)Cc2ccc3c(c2)CN(C)C3)ccc1NC(=O)NC(C)c1c(F)cccc1F (centres unmarked)	Y
CC(NC(=O)Nc1ccc(S(=O)(=O)CC2CCCN(C(C)C)C2)cc1)c1cccc(Cl)c1Cl (centres unmarked)	N
C[C@@H](NC(=O)Nc1ccc(S(=O)(=O)Cc2ccc3c(c2F)CNC3)cc1)c1ccccc1	Y
CC(NC(=O)Nc1ccc(S(=O)(=O)Cc2ccc3c(c2)CN(C)C3)cc1)c1cncnc1 (centres unmarked)	N
Cc1cc(S(=O)(=O)Cc2ccc3c(c2)CN(C)C3)ccc1NC(=O)NC(C)c1ccccc1 (centres unmarked)	Y

API: query returns whether the molecule falls strictly under 60 nM in EC50. Query: COc1cc(S(=O)(=O)Cc2ccc(CO)cc2)ccc1NC(=O)NC(C)c1c(F)cccc1F (centres unmarked)
N

In plain terms, does COc1ccc(C(C)NC(=O)Nc2ccc(S(=O)(=O)Cc3ccc4c(c3)CNC4)cc2)cc1 (centres unmarked) come in under 60 nM for EC50?
N

Determine if CCc1ccc(Cl)c(C(C)NC(=O)Nc2ccc(S(=O)(=O)Cc3ccc4c(c3)CNC4)cc2)c1 (centres unmarked) shows EC50 strictly lower than 60 nM.
Y

Hi there! Is EC50 for CC(NC(=O)Nc1ccc(S(=O)(=O)Cc2ccc3c(c2)CC(C)N(C)C3)cc1)c1cccc(Cl)c1Cl (centres unmarked) below 60 nM, do you know?
Y

A record lists CC(NC(=O)Nc1ccc(S(=O)(=O)Cc2ccc3c(c2)CNC3)cc1)c1ccccc1Cl.Cl (centres unmarked) . Is its EC50 below 60 nM?
Y

Is EC50 strictly under 60 nM for the entry CC(NC(=O)Nc1ccc(S(=O)(=O)Cc2ccc3c(c2)CN(CC#N)C3)cc1)c1ccccc1 (centres unmarked) ?
N

Threshold test, EC50 < 60 nM: CC(NC(=O)Nc1ccc(S(=O)(=O)Cc2cc3c(s2)CCN(C)C3)cc1)c1cccc(Cl)c1Cl (centres unmarked)
Y

Is the reported EC50 for COc1cc(S(=O)(=O)Cc2ccc3c(c2)CCN(C)C3)ccc1NC(=O)NC(C)c1ccccc1 (centres unmarked) strictly below 60 nM?
Y

Determine whether this molecule shows EC50 lower than 60 nM (ties excluded): COc1cc(S(=O)(=O)Cc2ccc3c(c2)CNC3)ccc1NC(=O)N(C)C(C)c1ccccc1 (centres unmarked)
N

Could you please tell me whether EC50 recorded for CC(NC(=O)Nc1ccc(S(=O)(=O)Cc2ccc3c(c2)CNC3)cc1)c1ccccc1F (centres unmarked) is less than 60 nM?
Y

For this molecule, is EC50 lower than 60 nM? COc1cc(S(=O)(=O)Cc2ccc3c(c2)CNC3)ccc1NC(=O)NC(C)c1ccccc1OC (centres unmarked)
Y

hey, is EC50 for COc1ccc(C(C)NC(=O)Nc2ccc(S(=O)(=O)Cc3ccc4c(c3)CNC4)cc2)cc1OC (centres unmarked) lower than 60 nM or not?
N
